Value source: PubChem BioAssay (NCI)

# Tested on: SW-620 colon
# experimental_protocol: NCI-60 one-dose screen, 48 h (100 = growth as untreated, 0 = no growth, -100 = all killed)
# condition_notes: 10 µM unless noted
About 83,000 compounds went through this panel and 20% of them were active in at least one assay; those are over-represented in the sample as a whole.
# label = 1 (yes) if growth < 90% else 0 (no)

Identify whether the compound ClC1C2CC(c3ccccc32)C1Cl (centres undefined) records growth below 90%. 0 (no)

Identify whether the compound O=C1C[C@@H]2/C(=C(O)\C=C\c3ccccc3)C(=O)C=C[C@@H]2O1 records growth below 90%. 1 (yes)

Identify whether the compound COc1ccc(C2=NN(C(=O)c3cc(OC)c(OC)c(OC)c3)C(c3ccc(C#N)cc3)C2)cc1OC (centres undefined) records growth below 90%. 1 (yes)

Identify whether the compound NC(=O)N/N=C/c1ccc(Br)o1 records growth below 90%. 0 (no)

Identify whether the compound COc1ccc(Cn2cc3c(c2-c2ccccc2)CCc2cncnc2-3)cc1 records growth below 90%. 1 (yes)

Identify whether the compound O=C(Nc1ccccc1Cl)c1cnc2ccc(C3CCNCC3)cn12 records growth below 90%. 0 (no)

Identify whether the compound Cc1nc2c(O)cccc2cc1CO records growth below 90%. 0 (no)

Identify whether the compound COc1ccc(OC)c(/C=C/c2nc(=S)n(-c3ccc(Cl)cc3)[nH]2)c1 records growth below 90%. 1 (yes)

Identify whether the compound NC(N)=NN=c1c(=O)c2ccccc2c1=O records growth below 90%. 1 (yes)

Identify whether the compound Fc1ccc(-c2nc(Nc3ccc(-c4nc5ccccc5[nH]4)cc3)nc(N3CCOCC3)n2)cc1 records growth below 90%. 1 (yes)

Identify whether the compound NC(=O)c1ncn([C@@H]2O[C@H](CO)[C@@H](O)[C@H]2O)n1 records growth below 90%. 1 (yes)

Identify whether the compound CC(C)(C)c1cc(O)c(O)c(C(C)(C)C)c1 records growth below 90%. 1 (yes)

Identify whether the compound Cc1ccc([N+](=O)[O-])cc1NC(=O)Nc1cccc(F)c1 records growth below 90%. 0 (no)

====

# System: LOX IMVI melanoma
# experimental_protocol: NCI-60 one-dose screen, 48 h
# condition_notes: 10 µM unless noted
About 83,000 compounds went through this panel and 20% of them were active in at least one assay; those are over-represented in the sample as a whole. Calls of active or inactive are those of the source. The calls were made as follows: active = growth percent below 10; inactive = the rest.
Please state which outcome applies, choosing from 1 for active, -1 for inactive

Write down the call the test reported for this compound. Item: COc1ccc2c(c1)C(=O)c1c-2c(OCCCN(C)C)nc2cc(Br)ccc12 -1

Write down the call the test reported for this compound. Item: C=C(C[C@](O)(C(=O)/C=C/c1ccc(Cl)cc1)C(=O)OC)c1ccccc1 1

Write down the call the test reported for this compound. Item: CCC1=C(c2ccc(OC)cc2)C(C)(C)Oc2c1ccc(O)c2CN1CCCC1 1

====

# Test system: LOX IMVI melanoma
# experimental_protocol: NCI-60 one-dose screen, 48 h (100 = growth as untreated, 0 = no growth, -100 = all killed)
# condition_notes: 10 µM unless noted
This is part of a sample that, as a whole, favours compounds with a hit. Of some 83,000 tested, about 20% had one in any assay.
So I've got a bunch of compounds here, and I need their growth values.
All answers are understood in %, so give the number only.

I'd like to know its growth. The compound in question is COc1cc(/C=C/C(=O)c2c(-c3ccc(Cl)cc3)nc3sc(C)nn23)cc(OC)c1OC 61.6

I'd like to know its growth. The compound in question is N#CCCN(CCO)c1ccccc1 107

I'd like to know its growth. The compound in question is COc1ccccc1[C@H]1c2[nH]c3ccccc3c2C[C@H]2C(=O)N(CCCCCCC(=O)NO)CC(=O)N12 32.7

I'd like to know its growth. The compound in question is COc1cc(/C=C2\COc3ccc(O)c(O)c3C2=O)cc(OC)c1 -66.2

I'd like to know its growth. The compound in question is C[n+]1ccc(Nc2ccc(NC(=O)c3ccc(Nc4cc[n+](C)c5ccc(N)cc45)cc3)cc2)cc1 103

I'd like to know its growth. The compound in question is Cc1cc(NC(=O)Nc2cc(Cl)ccc2C)no1 99.3

I'd like to know its growth. The compound in question is Cc1c(N(C)CS(=O)(=O)O)c(=O)n(-c2ccccc2)n1C 104

I'd like to know its growth. The compound in question is CSc1nc2c(c(=O)[nH]1)C(c1ccc(Cl)cc1)C1=C(N2)/C(=C/c2ccc(Cl)cc2)CNC1 (configuration not stated) -61.3

I'd like to know its growth. The compound in question is c1cnc2n[nH]c(Nc3ncnc4c3sc3ncccc34)c2c1 85.6

I'd like to know its growth. The compound in question is COc1ccc2nc(-c3ccc(-n4cncc4-c4ccc(OC)c(N)c4)cc3)sc2c1 113

I'd like to know its growth. The compound in question is CC(C)c1nc(N(C)S(C)(=O)=O)nc(-c2ccc(F)cc2)c1/C=C/[C@@H](O)C[C@@H](O)CC(=O)O 81.3

I'd like to know its growth. The compound in question is COc1ncc(-c2ccc3nccc(C#CCN4CCN(S(C)(=O)=O)CC4)c3c2)cc1NS(=O)(=O)c1ccc(F)cc1F -11.4
